# SYSTEM: T1, cyno PD-1 (soluble analyte in SPR) (cyno)
# T1 construct: also called cynomolgus PD-1
# ASSAY_OVERVIEW: SPR (ProteOn XPR36), mAb captured on anti-human IgG Fc, cyno PD-1 as analyte, 25 C
# kon per record follows

Example entries begin here.
BINDER | MEASURED_METRIC | MEASURED_RESULT
PD1B1085 (antibody, human IgG1, kappa, V domains shown, also called VH PD1H585; VL PD1L469) VH: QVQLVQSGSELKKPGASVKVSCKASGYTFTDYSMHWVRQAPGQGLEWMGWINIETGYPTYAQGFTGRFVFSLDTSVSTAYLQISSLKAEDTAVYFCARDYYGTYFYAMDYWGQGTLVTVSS VL: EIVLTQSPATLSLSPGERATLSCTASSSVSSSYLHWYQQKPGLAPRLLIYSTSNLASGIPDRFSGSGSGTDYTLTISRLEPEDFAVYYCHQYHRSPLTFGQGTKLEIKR | kon | 200000 M⁻¹ s⁻¹
PD1B1094 (antibody, human IgG1, kappa, V domains shown, also called VH PD1H586; VL PD1L652) VH: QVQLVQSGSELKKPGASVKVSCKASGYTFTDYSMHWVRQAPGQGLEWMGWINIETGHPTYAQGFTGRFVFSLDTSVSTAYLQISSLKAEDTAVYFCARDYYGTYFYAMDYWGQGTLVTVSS VL: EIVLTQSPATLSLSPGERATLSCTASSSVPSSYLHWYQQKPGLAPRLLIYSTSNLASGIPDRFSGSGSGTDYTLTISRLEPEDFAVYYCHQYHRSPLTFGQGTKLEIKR | kon | 135000 M⁻¹ s⁻¹

Any idea what its kon is? The binder is PD1B1089 (antibody, human IgG1, kappa, V domains shown, also called VH PD1H405; VL PD1L652) VH: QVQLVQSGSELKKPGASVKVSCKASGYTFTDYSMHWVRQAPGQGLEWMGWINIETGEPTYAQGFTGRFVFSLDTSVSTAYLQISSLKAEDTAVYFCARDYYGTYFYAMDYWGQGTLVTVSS VL: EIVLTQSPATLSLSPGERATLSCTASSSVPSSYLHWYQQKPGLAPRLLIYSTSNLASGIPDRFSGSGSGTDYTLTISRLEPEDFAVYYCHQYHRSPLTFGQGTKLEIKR 93200 M⁻¹ s⁻¹
